B1: NEK8 (parent)
chain: VVGTPCYISPELCEGKPYNQKSDI

# Variants of: B1
# measurement.description: protein stability index of a GFP-peptide fusion (GPS, HEK-293T) (PSI 1-6); higher = more stable;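 also: lentivirally expressed fusions sorted by FACS into six bins by GFP to DsRed ratio, PSI derived from sequencing read proportions per bin multiplied by bin number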
# measurement.setup: c terminus: a fixed tail appended
Where protein stability index equals or exceeds 3, the correct label is 1.0; where it does not, the label is 0.0.

### Prompt Is protein stability index at least 3? Consider N19H
### Response 0.0

### Prompt Is protein stability index at least 3? Consider E14G
### Response 0.0

### Prompt Is protein stability index at least 3? Consider K16T
### Response 0.0

### Prompt Is protein stability index at least 3? Consider P5R
### Response 0.0

### Prompt Is protein stability index at least 3? Consider E11S
### Response 0.0

New cases:
### Prompt Is protein stability index at least 3? Consider G3Y
### Response 0.0

### Prompt Is protein stability index at least 3? Consider T4Y
### Response 0.0

### Prompt Is protein stability index at least 3? Consider V2R
### Response 1.0

### Prompt Is protein stability index at least 3? Consider P10L
### Response 0.0

### Prompt Is protein stability index at least 3? Consider E14H
### Response 0.0

### Prompt Is protein stability index at least 3? Consider G15K
### Response 1.0

### Prompt Is protein stability index at least 3? Consider C13Y
### Response 0.0

### Prompt Is protein stability index at least 3? Consider K16W
### Response 0.0

### Prompt Is protein stability index at least 3? Consider T4K
### Response 1.0
